Catalogue of Ki readings, one per entry.
# measured target: human V1a receptor (Homo sapiens, UniProt P37288)
# Construct: expressed in transfected cells; host or cells: HEK293 cells, transiently transfected; membranes prepared
# Sequence (P37288 whole entry): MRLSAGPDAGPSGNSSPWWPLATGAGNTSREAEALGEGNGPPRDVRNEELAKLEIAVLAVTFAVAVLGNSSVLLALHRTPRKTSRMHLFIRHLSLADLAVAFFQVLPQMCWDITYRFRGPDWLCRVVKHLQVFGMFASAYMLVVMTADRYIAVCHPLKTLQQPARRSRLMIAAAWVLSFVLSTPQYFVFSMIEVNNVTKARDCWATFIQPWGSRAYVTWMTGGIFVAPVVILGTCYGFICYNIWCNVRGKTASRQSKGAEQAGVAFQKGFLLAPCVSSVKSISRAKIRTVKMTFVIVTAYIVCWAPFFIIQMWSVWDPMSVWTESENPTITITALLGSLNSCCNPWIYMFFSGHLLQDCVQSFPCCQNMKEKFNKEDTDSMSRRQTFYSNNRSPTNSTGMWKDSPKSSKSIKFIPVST
# assay procedure: V1a receptor binding study (3H-Vasopressin SPA, HEK293 membranes)
# measurement conditions: membranes of HEK293 cells transiently transfected with human V1a receptor, Ki by Cheng-Prussoff equation, read-out: pKi hV1a (converted)
measurement label: Ki (nM)

| molecule | measurement label | unit abbrev | reported measurement |
| --- | --- | --- | --- |
| O=C(c1cc2ccccc2s1)N1CCC2(CC1)OCc1ccccc12 | Ki | nM | 25.1 |
| CCc1cc(Br)cc2cc(C(=O)N3CCC4(CC3)OCc3ccccc34)oc12 | Ki | nM | 50.1 |
| COc1ccc2c(c1)CC(C(=O)N1CCC3(CC1)OCc1ccccc13)S2 (stereo not shown) | Ki | nM | 63.1 |
| CC1=C(C(=O)N2CC[C@@]3(OC(=O)c4ccccc43)[C@@H](C)C2)Cc2ccccc21 (racemic) | Ki | nM | 63.1 |
| O=C(c1nc2cc(Cl)ccc2[nH]1)N1CCC2(CC1)OCc1ccccc12 | Ki | nM | 31.6 |
| COc1cccc2cc(C(=O)N3CCC4(CC3)OCc3ccccc34)sc12 | Ki | nM | 50.1 |
| COc1ccc2c(c1)C1(CCN(C(=O)c3cc4cccnc4[nH]3)CC1)OC2=O | Ki | nM | 200 |

Provenance of the data: patent US7495008B2
